MEASURED_TARGET: feline FcRn complex (FcRn-α subunit and β-microglobulin), biotin labeled (feline)
TEST_NAME: SPR, pH 6
Below, each of the binders is paired with its reported Kd value.
Numeric answer plus unit only.

# BINDER, RESULT
data = [
    ("feline IgG1a Q311R (antibody, part only; not given: Variable domains, not shown: another chain or arm of the molecule) constant: ASTTAPSVFPLAPSCGTTSGATVALACLVLGYFPEPVTVSWNSGALTSGVHTFPAVLQASGLYSLSSMVTVPSSRWLSDTFTCNVAHPPSNTKVDKTVRKTDHPPGPKPCDCPKCPPPEMLGGPSIFIFPPKPKDTLSISRTPEVTCLVVDLGPDDSDVQITWFVDNTQVYTAKTSPREEQFNSTYRVVSVLPILHRDWLKGKEFKCKVNSKSLPSPIERTISKAKGQPHEPQVYVLPPAQEELSRNKVSVTCLIKSFHPPDIAVEWEITGQPEPENNYRTTPPQLDSDGTYFVYSKLSVDRSHWQRGNTYTCSVSHEALHSHHTQKSLTQSPGK", "4.56 nM"),
]

Now consider the entry below.
### Prompt Give reported Kd value for feline IgG1a S434K (antibody, part only; not given: variable domains and light chain, not shown: another chain or arm of the molecule) constant: ASTTAPSVFPLAPSCGTTSGATVALACLVLGYFPEPVTVSWNSGALTSGVHTFPAVLQASGLYSLSSMVTVPSSRWLSDTFTCNVAHPPSNTKVDKTVRKTDHPPGPKPCDCPKCPPPEMLGGPSIFIFPPKPKDTLSISRTPEVTCLVVDLGPDDSDVQITWFVDNTQVYTAKTSPREEQFNSTYRVVSVLPILHQDWLKGKEFKCKVNSKSLPSPIERTISKAKGQPHEPQVYVLPPAQEELSRNKVSVTCLIKSFHPPDIAVEWEITGQPEPENNYRTTPPQLDSDGTYFVYSKLSVDRSHWQRGNTYTCSVSHEALHKHHTQKSLTQSPGK
### Response 6.76 nM
